B1: ZC3H15 (parent)
chain: ENLFTGEDLDELEEELNTLDLEE

# Variants of: B1
# method-description: protein stability index of a GFP-peptide fusion (GPS, HEK-293T) (PSI 1-6); higher = more stable;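 note: lentivirally expressed fusions sorted by FACS into six bins by GFP to DsRed ratio, PSI derived from sequencing read proportions per bin multiplied by bin number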
# condition-info: c terminus: native
measured-parameter: protein stability index
Answers are plain numbers.

A selection of reference data follows.
Return reported protein stability index. Input variant: F4R
4.67

Return reported protein stability index. Input variant: D10K
4.35

Return reported protein stability index. Input variant: T18Q
5.2

Return reported protein stability index. Input variant: L19G
4.69

Return reported protein stability index. Input variant: G6H
4.37

Return reported protein stability index. Input variant: D8C
4.99

Please give protein stability index for each item listed below.
1. L19H
2. L19Y
3. E11T
4. E15Q
5. L9P
6. L12R

1. 3.85
2. 1.99
3. 4.9
4. 4.93
5. 4.55
6. 3.52

Please give protein stability index for each item listed below.
1. E11L
2. L21R
3. N2E

1. 4.3
2. 3.48
3. 4.39

Please give protein stability index for each item listed below.
1. E15P
2. T5H
3. E15T
4. L16F
5. N17E
6. T5N
7. E22I

1. 3.14
2. 4.56
3. 5.01
4. 4.87
5. 4.89
6. 4.41
7. 5.44
